Quick reference: MIC80 of the listed items.
test system: Candida albicans; experiment: Antifungal activity against CDR1 and CDR2 efflux pump deficient Candida albicans DSY654 after 48 hrs by broth microdilution method; assay type: functional; details: DSY654, 48 h

| molecule | assayed-target | qualifier-symbol | MIC80 [µg/mL] |
| --- | --- | --- | --- |
| OCCn1cc(-c2ccc(O)cc2)c(-c2ccc(O)c(C3OC(CO)C(O)C(O)C3O)c2O)n1 (stereo not given) | Candida albicans | > | 128 |
| COc1cc(O)c(-c2cc(-c3ccccc3)nn2-c2ccccc2)c(OC)c1 | Candida albicans | > | 128 |
| COc1ccc(-c2cn[nH]c2-c2c(O)cc(O)cc2O)cc1 | Candida albicans | > | 128 |
| Oc1ccc(-c2cc(-c3ccccc3)n[nH]2)c(O)c1O | Candida albicans | = | 8 |
| COc1ccc(C2=CC(c3c(O)cc(OC)cc3OC)=NCCN2)cc1 | Candida albicans | = | 16 |
| OCC1OC(c2c(O)ccc(-c3n[nH]cc3-c3ccc(O)cc3)c2O)C(O)C(O)C1O (stereo not given) | Candida albicans | = | 16 |
| COc1ccc(-c2cn(CCO)nc2-c2ccc(O)cc2O)cc1 | Candida albicans | > | 128 |
| Oc1ccc(-c2cc(-c3c(O)cc(O)cc3O)[nH]n2)cc1 | Candida albicans | > | 128 |
| COc1ccc(-n2nc(-c3ccccc3)cc2-c2c(O)cc(OC)c(OC)c2OC)cc1 | Candida albicans | = | 4 |
| COc1ccc(-c2cnn(-c3ccccc3)c2-c2c(O)cc(OC)cc2OC)cc1 | Candida albicans | > | 128 |

----------
test system: Candida albicans; assay: Synergistic antifungal activity against fluconazole-resistant Candida albicans 28A after 48 hrs in presence of fluconazole by broth microdilution checkerboard method; type: functional

| compound | MIC80 |
| --- | --- |
| COc1ccc(-c2c[nH]nc2-c2ccc(O)cc2O)cc1 | > 128 µg/mL |
| OCC1OC(c2c(O)ccc(-c3n[nH]cc3-c3ccc(O)cc3)c2O)C(O)C(O)C1O (stereo not given) | > 128 µg/mL |
| COc1ccc(-c2cnn(-c3ccccc3)c2-c2c(O)cc(OC)cc2OC)cc1 | > 128 µg/mL |
| COc1cc(O)c(-c2cc(-c3ccccc3)nn2-c2ccccc2)c(OC)c1 | > 128 µg/mL |
| COc1ccc(-c2cn[nH]c2-c2c(O)cc(O)cc2O)cc1 | > 128 µg/mL |

----------
test system: Candida albicans; assay: Antifungal activity against CDR1 and CDR2 efflux pump deficient Candida albicans DSY654 after 48 hrs by broth microdilution method; format: functional; details: DSY654, 48 h
Quick reference: MIC80 of the listed items.

| compound | assayed-target | MIC80 |
| --- | --- | --- |
| OCCn1ncc(-c2ccc(O)cc2)c1-c1ccc(O)cc1O | Candida albicans | > 128 µg/mL |
| CCn1cc(-c2ccc(O)cc2)c(-c2ccc(O)c(C3OC(CO)C(O)C(O)C3O)c2O)n1 (stereo unspecified) | Candida albicans | > 128 µg/mL |
| Oc1ccc(-c2cn[nH]c2-c2c(O)cc(O)cc2O)cc1 | Candida albicans | > 128 µg/mL |
| COc1cc(O)c(-c2cc(-c3ccccc3)n(CCO)n2)c(OC)c1 | Candida albicans | 4 µg/mL |
| COc1ccc(-n2nc(-c3ccccc3)cc2-c2ccc(OC)c(OC)c2O)cc1 | Candida albicans | 8 µg/mL |
| COc1ccc(-c2cnn(-c3ccc(OC)cc3)c2-c2ccc(O)cc2O)cc1 | Candida albicans | > 128 µg/mL |

----------
tested on: Candida albicans; assay: Antifungal activity against fluconazole-resistant Candida albicans 28A after 48 hrs by broth microdilution method; format: functional
Quick reference: MIC80 of the listed items.
measurement-name: MIC80

| compound | assayed-target | experimental-value |
| --- | --- | --- |
| CCn1ncc(-c2ccc(OC)cc2)c1-c1ccc(O)cc1O | Candida albicans | > 128 µg/mL |
| CCn1cc(-c2ccc(O)cc2)c(-c2ccc(O)c(C3OC(CO)C(O)C(O)C3O)c2O)n1 (stereo unspecified) | Candida albicans | > 128 µg/mL |
| COc1ccc(-c2cc(-c3ccccc3)[nH]n2)c(O)c1OC | Candida albicans | > 128 µg/mL |
| Oc1ccccc1-c1cc(-c2ccccc2)[nH]n1 | Candida albicans | 64 µg/mL |
| COc1ccc(-c2cnn(-c3ccccc3)c2-c2ccc(O)cc2O)cc1 | Candida albicans | > 128 µg/mL |
| Oc1ccccc1C1=NCCNC(c2ccccc2)=C1 | Candida albicans | > 128 µg/mL |
| Oc1ccc(-c2cn[nH]c2-c2c(O)cc(O)cc2O)cc1 | Candida albicans | > 128 µg/mL |
| COc1ccc(-c2cnn(-c3ccccc3)c2-c2c(O)cc(OC)cc2OC)cc1 | Candida albicans | > 128 µg/mL |
| COc1ccc(-n2nc(-c3ccccc3)cc2-c2c(O)cc(OC)c(OC)c2OC)cc1 | Candida albicans | > 128 µg/mL |
| Oc1ccccc1-c1cc(-c2ccccc2)nn1-c1ccccc1 | Candida albicans | 128 µg/mL |
| Oc1ccc(-c2cnn(-c3ccccc3)c2-c2ccc(O)cc2O)cc1 | Candida albicans | > 128 µg/mL |

----------
Quick reference: MIC80 of the listed items.
test system: Candida albicans; assay: Synergistic antifungal activity against fluconazole-resistant Candida albicans 28A after 48 hrs in presence of fluconazole by broth microdilution checkerboard method; format: functional

| substance-smiles | assayed-target | MIC80 |
| --- | --- | --- |
| COc1cc(O)c(-c2cc(-c3ccccc3)n(-c3ccccc3)n2)c(OC)c1OC | Candida albicans | > 128 µg/mL |
| COc1ccc(-n2nc(-c3ccccc3)cc2-c2c(O)cc(OC)c(OC)c2OC)cc1 | Candida albicans | > 128 µg/mL |
| Oc1ccc(-c2cc(-c3c(O)cc(O)cc3O)[nH]n2)cc1 | Candida albicans | 1 µg/mL |
| COc1cc(O)c(-c2cc(-c3ccccc3)n[nH]2)c(OC)c1 | Candida albicans | 8 µg/mL |
| Oc1ccc(-c2cn[nH]c2-c2c(O)cc(O)cc2O)cc1 | Candida albicans | > 128 µg/mL |
| COc1ccc(-n2nc(-c3c(O)cc(OC)c(OC)c3OC)cc2-c2ccccc2)cc1 | Candida albicans | > 128 µg/mL |
| COc1ccc(-c2cn[nH]c2-c2c(O)cc(OC)cc2OC)cc1 | Candida albicans | > 128 µg/mL |
| COc1ccc(-c2cn(CCO)nc2-c2ccc(O)cc2O)cc1 | Candida albicans | > 128 µg/mL |
| COc1ccc(-c2cnn(-c3ccccc3)c2-c2ccc(O)cc2O)cc1 | Candida albicans | 16 µg/mL |
| Oc1ccc(C2=NCCNC(c3ccccc3)=C2)c(O)c1O | Candida albicans | > 128 µg/mL |
| OCCn1ncc(-c2ccc(O)cc2)c1-c1ccc(O)cc1O | Candida albicans | > 128 µg/mL |

----------
tested on: Candida albicans; assay: Antifungal activity against CDR1 and CDR2 efflux pump deficient Candida albicans DSY654 after 48 hrs by broth microdilution method; format: functional; conditions: DSY654, 48 h

| compound | MIC80 |
| --- | --- |
| Oc1ccccc1C1=NCCNC(c2ccccc2)=C1 | > 128 µg/mL |
| OCCn1cc(-c2ccc(O)cc2)c(-c2ccc(O)cc2O)n1 | > 128 µg/mL |
| COc1ccc(-c2cnn(-c3ccccc3)c2-c2ccc(O)cc2O)cc1 | > 128 µg/mL |
| OCCn1ncc(-c2ccc(O)cc2)c1-c1ccc(O)c(C2OC(CO)C(O)C(O)C2O)c1O (stereo unspecified) | > 128 µg/mL |
| COc1cc(O)c(-c2cc(-c3ccccc3)n(-c3ccccc3)n2)c(OC)c1OC | > 128 µg/mL |
| COc1ccc(C2=NCCNC(c3ccccc3)=C2)c(O)c1OC | > 128 µg/mL |
| COc1ccc(-c2cnn(CCO)c2-c2ccc(O)cc2O)cc1 | > 128 µg/mL |
| OC(Cn1cncn1)(Cn1cncn1)c1ccc(F)cc1F | 0.25 µg/mL |
| COc1ccc(-c2cc(-c3ccccc3)[nH]n2)c(O)c1OC | > 128 µg/mL |
| Oc1ccc(C2=NCCNC(c3ccccc3)=C2)c(O)c1O | 32 µg/mL |
| Oc1ccccc1-c1cc(-c2ccccc2)nn1-c1ccccc1 | 8 µg/mL |

----------
tested on: Candida albicans; test: Antifungal activity against CDR1 and CDR2 efflux pump deficient Candida albicans DSY654 after 48 hrs by broth microdilution method; type: functional; details: DSY654, 48 h

| substance-smiles | MIC80 |
| --- | --- |
| Oc1cc(O)c(-c2cc(-c3ccccc3)n[nH]2)c(O)c1 | > 128 µg/mL |
| CCn1ncc(-c2ccc(OC)cc2)c1-c1ccc(O)cc1O | > 128 µg/mL |
| COc1ccc(-n2nc(-c3c(O)cc(OC)c(OC)c3OC)cc2-c2ccccc2)cc1 | > 128 µg/mL |
| COc1cc(O)c(C2=NCCNC(c3ccccc3)=C2)c(OC)c1 | 8 µg/mL |
| CCn1cc(-c2ccc(OC)cc2)c(-c2ccc(O)cc2O)n1 | > 128 µg/mL |
| Oc1ccc(-c2cn[nH]c2-c2ccc(O)cc2O)cc1 | > 128 µg/mL |
